Taken from the supplement of paper PMC9233669.

system: biotinyl-Val-oxazolone; test: self-aminoacylation, catalytic enhancement (BVO) (fold over background); higher = more active; k-Seq, kA / k0A0; sequences stand for … in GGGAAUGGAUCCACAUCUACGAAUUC…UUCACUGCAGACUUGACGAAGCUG
Fewer inactive variants are shown than the library holds.
Quick rule: self-aminoacylation of at least 1 means t, below that means f.

Previously resolved entries follow.
# sequence.text, measurement.target, class.name
data = [
    ("AAGUUUGGUAAUCGUCGCAAG [Fam3.1 aminoacylation ribozyme variant]", "biotinyl-Val-oxazolone", "t"),
    ("AUUAUCCUGGUCAACGAGUGA [Fam2.1 aminoacylation ribozyme variant]", "biotinyl-Val-oxazolone", "t"),
    ("CAAGUUCAAACAAUCGGUCUG [Fam1A.1 aminoacylation ribozyme variant]", "biotinyl-Val-oxazolone", "f"),
    ("CCACACUUCAUGCAAGCGGUC [Fam1B.1 aminoacylation ribozyme variant]", "biotinyl-Val-oxazolone", "f"),
    ("AAGUUUGCUUAUAGUCGCAAG [Fam3.1 aminoacylation ribozyme variant]", "biotinyl-Val-oxazolone", "f"),
    ("AUUCCCCUGGUUAUCGAGUGA [Fam2.1 aminoacylation ribozyme variant]", "biotinyl-Val-oxazolone", "t"),
    ("CUACUUCAAACAAUCGGUGUC [Fam1A.1 aminoacylation ribozyme variant]", "biotinyl-Val-oxazolone", "f"),
]

Query sequence follows.
Query string: Is self-aminoacylation at least 1? Consider CUACUUCAAGCACUCGGUCUG [Fam1A.1 aminoacylation ribozyme variant]
Result string: t

====

system: biotinyl-Ile-oxazolone; assay: self-aminoacylation, catalytic enhancement (BIO) (fold over background); higher = more active; k-Seq, kA / k0A0; sequences stand for … in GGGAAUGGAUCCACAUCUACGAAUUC…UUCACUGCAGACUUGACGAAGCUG
This sample holds only a part of the variants without activity.
Please enter Fulfilled where self-aminoacylation is greater than or equal to 3, and Not fulfilled where it is lower.

# sequence.text, class.name
records = [
    ("AUACUGCAAACAAUCGGUCUG [Fam1A.1 aminoacylation ribozyme variant]", "Not fulfilled"),
    ("GUUCACCUAGUUCAUCGGGUG [Fam2.2 aminoacylation ribozyme variant]", "Not fulfilled"),
    ("AUUCACCUAGGUCAUUGGGUU [Fam2.2 aminoacylation ribozyme variant]", "Not fulfilled"),
    ("CUACUCCAAACAAUCGGUGUG [Fam1A.1 aminoacylation ribozyme variant]", "Not fulfilled"),
    ("AUUACCCUGGUCAUCGGGUGU [Fam2.1 aminoacylation ribozyme variant]", "Fulfilled"),
]

Query string: I'd appreciate it if you could say whether AUUCAGCUAGUUCAUCGGGUG [Fam2.2 aminoacylation ribozyme variant] has self-aminoacylation at least equal to 3.
Result string: Fulfilled

Query string: For AUUCAUCUGGGUCAUCGGGUG [Fam2.2 aminoacylation ribozyme variant] then?
Result string: Fulfilled

Query string: Try this sequence next: AAUUCUGCUAAUAGUCGCAAG [Fam3.1 aminoacylation ribozyme variant]
Result string: Not fulfilled

Query string: Can you handle AUUAACCUAGGUCAUCGGGCG [Fam2.2 aminoacylation ribozyme variant] next?
Result string: Not fulfilled

====

test system: biotinyl-Phe-oxazolone; assay: self-aminoacylation, catalytic enhancement (BFO) (fold over background); higher = more active; k-Seq, kA / k0A0; sequences stand for … in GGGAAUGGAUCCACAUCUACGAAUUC…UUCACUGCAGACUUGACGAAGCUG
Variants at the floor of the assay were thinned out.
quantity: self-aminoacylation
Answers are plain numbers.

# sequence.text, quantity, observed.result
measured = [
    ("GCAAACUUCAAGCAAUCGGUC [Fam1B.1 aminoacylation ribozyme variant]", "self-aminoacylation", 21.7),
    ("AUUCACCUAGGUCAUCGUGCG [Fam2.2 aminoacylation ribozyme variant]", "self-aminoacylation", 5.13),
    ("CAACACUUCAAGCAAUUGGUC [Fam1B.1 aminoacylation ribozyme variant]", "self-aminoacylation", 1.42),
]

--- query ---
Query string: What self-aminoacylation value was documented for this sequence, AUUCACCUAGGUCAUCGGCUC [Fam2.2 aminoacylation ribozyme variant] ?
Result string: 5.2

====

test system: biotinyl-Phe-oxazolone; assay: self-aminoacylation, catalytic enhancement (BFO) (fold over background); higher = more active; k-Seq, kA / k0A0; sequences stand for … in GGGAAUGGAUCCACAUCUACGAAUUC…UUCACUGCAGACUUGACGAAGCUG
Variants at the floor of the assay were thinned out.
Categories are assigned from the measured self-aminoacylation using these intervals: A = under 0.9, B = from 0.9 up to 20, C = 20 and over

See these solved cases before continuing.
# sequence.text, measurement.target, class.name
measured = [
    ("CCACACCACAAGCAAUCGGUC [Fam1B.1 aminoacylation ribozyme variant]", "biotinyl-Phe-oxazolone", "A"),
    ("CUACUUCACAGAAUCGGUCUG [Fam1A.1 aminoacylation ribozyme variant]", "biotinyl-Phe-oxazolone", "B"),
    ("AUUACCCAGUUCAUCGAGUGA [Fam2.1 aminoacylation ribozyme variant]", "biotinyl-Phe-oxazolone", "B"),
    ("AUUCACCACGGUCAUCGGGUG [Fam2.2 aminoacylation ribozyme variant]", "biotinyl-Phe-oxazolone", "C"),
    ("AAGUUUGCUGAUAAUCGCAAG [Fam3.1 aminoacylation ribozyme variant]", "biotinyl-Phe-oxazolone", "B"),
]

Query string: Textbook exercise: identify the category of the sequence given here, AUUCACCAAGGUCAUUGGGUG [Fam2.2 aminoacylation ribozyme variant] , according to its measured value.
Result string: C

Query string: Consider next the sequence AUUCACCUAGGUCAUCAGUUG [Fam2.2 aminoacylation ribozyme variant] in the same way.
Result string: B

Query string: Also AUUACCCAGGUCAUCGAGUGG [Fam2.1 aminoacylation ribozyme variant] , if possible.
Result string: B

====

Task for the reader: assign each of the following sequences its reported self-aminoacylation.
tested on: biotinyl-Leu-oxazolone; assay: self-aminoacylation, catalytic enhancement (BLO) (fold over background); higher = more active; k-Seq, kA / k0A0; sequences stand for … in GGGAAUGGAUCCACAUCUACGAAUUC…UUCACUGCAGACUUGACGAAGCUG
Fewer inactive variants are shown than the library holds.
Numbers only.

# example entries with known answers
# sequence.text, measurement.target, self-aminoacylation
rows = [
    ("AUUCGCCUAGGUCCUCGGGUG [Fam2.2 aminoacylation ribozyme variant]", "biotinyl-Leu-oxazolone", 8.24),
    ("CCACACUUCAAGCACUCGGCC [Fam1B.1 aminoacylation ribozyme variant]", "biotinyl-Leu-oxazolone", 3.19),
]

Respectfully, I request self-aminoacylation for each entry included below.
1. AAGUUUGCUAGUAGUCGCAUG [Fam3.1 aminoacylation ribozyme variant]
2. AUUCAGCUAGUUCAUCGGGUG [Fam2.2 aminoacylation ribozyme variant]
3. CUACUUCAAACAAUCAUUCUG [Fam1A.1 aminoacylation ribozyme variant]
4. GUACUUCAAACAUUCGGUCUG [Fam1A.1 aminoacylation ribozyme variant]
5. AUUCACCUAGGUCUUCGCGUG [Fam2.2 aminoacylation ribozyme variant]
6. GUACUUCAAACAAUCGGGCUG [Fam1A.1 aminoacylation ribozyme variant]
7. AUAACCCUGGUCAUCUAGUGA [Fam2.1 aminoacylation ribozyme variant]

Result string:
[0.808, 9.16, 0.513, 1.66, 4.5, 2.67, 9.2]

====

test system: biotinyl-Val-oxazolone; experiment: self-aminoacylation, catalytic enhancement (BVO) (fold over background); higher = more active; k-Seq, kA / k0A0; sequences stand for … in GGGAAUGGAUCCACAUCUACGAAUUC…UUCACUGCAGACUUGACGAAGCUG
Fewer inactive variants are shown than the library holds.
Please respond with reported self-aminoacylation for every item in the list.
One number for each entry.

Check out these entries, answers already filled in.
# sequence.text, observed.result
measured = [
    ("AUUACCCUGGUUAACGAGUGA [Fam2.1 aminoacylation ribozyme variant]", 6.35),
    ("GUUACCCUGGUCAUCAAGUGA [Fam2.1 aminoacylation ribozyme variant]", 2.08),
    ("AUUACCCUAGUCAGCGAGUGA [Fam2.1 aminoacylation ribozyme variant]", 3.38),
]

List the reported self-aminoacylation of each sequence below.
1. AUUAACCUGGUCAUCGCGUGA [Fam2.1 aminoacylation ribozyme variant]
2. CUAAUUCAAACAAUCGGGCUG [Fam1A.1 aminoacylation ribozyme variant]
3. GUUACCCUGGUCAGCGAGUGA [Fam2.1 aminoacylation ribozyme variant]
4. AAGUUUGCUAAAAGCCGCAAG [Fam3.1 aminoacylation ribozyme variant]
5. CCACACUUCAAGUAUUCGGUC [Fam1B.1 aminoacylation ribozyme variant]
6. AUUACCCUUGACAUCGAGUGA [Fam2.1 aminoacylation ribozyme variant]

Result string:
1. 7.74
2. 0.852
3. 4.05
4. 0.689
5. 1.64
6. 5.25
